system: HeLa; assay: Cytotoxicity against human HeLa cells assessed as growth inhibition after 72 hrs by MTT assay; type: functional, cell-based
Reported IC50 values follow for various molecules
Dear colleague, please return just the value in nM, with no unit written.

# annotated cases, reported IC50 shown
COc1cc2c(O[C@@H]3OC[C@@H](OC)[C@H](OC)[C@H]3O[C@@H]3O[C@H](COC(C)=O)[C@@H](OC(C)=O)[C@H](OC(C)=O)[C@H]3OC(C)=O)c3c(c(-c4ccc5c(c4)OCO5)c2cc1OC)C(=O)OC3 = 74
CC(=O)O[C@H]1C(=O)[C@@]2(C)[C@H]([C@H](OC(=O)c3ccccc3)[C@]3(O)C[C@H](OC(=O)[C@H](O)[C@@H](NC(=O)c4ccccc4)c4ccccc4)C(C)=C1C3(C)C)[C@]1(OC(C)=O)CO[C@@H]1C[C@@H]2O = 96

Given the molecule COc1cc2c(O[C@@H]3OC[C@@H](OC)[C@H](OC)[C@H]3O)c3c(c(-c4ccc5c(c4)OCO5)c2cc1OC)C(=O)OC3 , write its reported IC50. 67

* * *

system: MCF7; test: Cytotoxicity against human MCF7 cells assessed as growth inhibition after 72 hrs by MTT assay; assay type: functional, cell-based; conditions: MCF7, 72 h
Property: pIC50
Lab note: report pIC50 as minus log10 of the concentration in molar units, number only.

Under MCF7: report pIC50 of COc1cc2c(O[C@@H]3OC[C@@H](OC)[C@H](OC)[C@H]3O)c3c(c(-c4ccc5c(c4)OCO5)c2cc1OC)C(=O)OC3 . 6.72

State pIC50 (MCF7) of CC(=O)O[C@H]1C(=O)[C@@]2(C)[C@H]([C@H](OC(=O)c3ccccc3)[C@]3(O)C[C@H](OC(=O)[C@H](O)[C@@H](NC(=O)c4ccccc4)c4ccccc4)C(C)=C1C3(C)C)[C@]1(OC(C)=O)CO[C@@H]1C[C@@H]2O . 7.35

Please report the measured pIC50 for COc1cc2c(O[C@@H]3OC[C@@H](OC)[C@H](OC)[C@H]3O[C@@H]3O[C@H](COC(C)=O)[C@@H](OC(C)=O)[C@H](OC(C)=O)[C@H]3OC(C)=O)c3c(c(-c4ccc5c(c4)OCO5)c2cc1OC)C(=O)OC3 tested on MCF7. 7.04
